# tested-target: hα4 and β1 integrins (Homo sapiens, UniProt P05556+P13612)
# Sequence (P13612 34-1032): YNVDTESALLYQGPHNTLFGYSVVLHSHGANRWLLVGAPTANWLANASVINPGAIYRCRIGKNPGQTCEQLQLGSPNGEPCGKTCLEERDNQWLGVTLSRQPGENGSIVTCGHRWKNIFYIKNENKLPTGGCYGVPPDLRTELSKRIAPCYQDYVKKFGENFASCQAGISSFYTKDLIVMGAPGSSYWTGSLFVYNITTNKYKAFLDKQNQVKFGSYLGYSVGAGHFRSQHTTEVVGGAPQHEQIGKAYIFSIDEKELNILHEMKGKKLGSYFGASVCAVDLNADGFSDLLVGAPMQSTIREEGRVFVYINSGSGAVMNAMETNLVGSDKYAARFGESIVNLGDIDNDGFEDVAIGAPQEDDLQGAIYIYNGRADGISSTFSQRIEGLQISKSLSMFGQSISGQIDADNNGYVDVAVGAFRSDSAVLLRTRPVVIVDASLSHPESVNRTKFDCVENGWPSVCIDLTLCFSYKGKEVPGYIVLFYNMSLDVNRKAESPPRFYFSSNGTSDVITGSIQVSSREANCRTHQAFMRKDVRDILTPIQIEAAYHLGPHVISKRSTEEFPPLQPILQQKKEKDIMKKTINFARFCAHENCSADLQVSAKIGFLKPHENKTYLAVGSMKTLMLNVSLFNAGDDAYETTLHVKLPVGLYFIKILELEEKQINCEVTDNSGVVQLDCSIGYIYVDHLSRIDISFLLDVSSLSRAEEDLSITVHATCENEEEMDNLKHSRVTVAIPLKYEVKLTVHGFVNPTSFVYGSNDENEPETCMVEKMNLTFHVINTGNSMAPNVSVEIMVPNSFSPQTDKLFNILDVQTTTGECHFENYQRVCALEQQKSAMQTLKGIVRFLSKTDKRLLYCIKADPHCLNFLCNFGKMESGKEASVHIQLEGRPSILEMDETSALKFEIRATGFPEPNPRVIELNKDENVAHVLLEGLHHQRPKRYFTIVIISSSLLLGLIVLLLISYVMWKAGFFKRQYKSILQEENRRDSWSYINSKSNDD
# Sequence (P05556 21-798): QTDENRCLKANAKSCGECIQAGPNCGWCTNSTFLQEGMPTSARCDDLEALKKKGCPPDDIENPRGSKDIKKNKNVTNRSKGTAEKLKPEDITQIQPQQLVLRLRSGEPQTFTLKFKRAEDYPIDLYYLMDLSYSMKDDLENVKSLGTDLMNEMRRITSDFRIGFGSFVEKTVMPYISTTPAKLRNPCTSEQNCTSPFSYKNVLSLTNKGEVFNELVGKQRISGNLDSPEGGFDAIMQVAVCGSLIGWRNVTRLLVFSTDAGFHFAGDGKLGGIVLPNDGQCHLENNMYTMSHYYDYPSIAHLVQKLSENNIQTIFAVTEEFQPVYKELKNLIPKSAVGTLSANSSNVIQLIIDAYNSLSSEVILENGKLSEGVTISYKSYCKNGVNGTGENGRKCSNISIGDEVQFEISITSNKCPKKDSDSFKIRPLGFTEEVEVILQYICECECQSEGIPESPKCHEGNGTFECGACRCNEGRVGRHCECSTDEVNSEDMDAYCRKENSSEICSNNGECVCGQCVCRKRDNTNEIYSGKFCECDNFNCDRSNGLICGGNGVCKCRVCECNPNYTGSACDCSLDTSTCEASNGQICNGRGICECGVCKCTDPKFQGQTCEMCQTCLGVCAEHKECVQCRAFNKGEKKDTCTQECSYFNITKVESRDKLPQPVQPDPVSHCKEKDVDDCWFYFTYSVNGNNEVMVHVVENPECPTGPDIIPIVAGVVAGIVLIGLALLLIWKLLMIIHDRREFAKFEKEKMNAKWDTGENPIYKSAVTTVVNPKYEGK
# procedure-details: In vitro inhibition of binding between CHO cells expressing hα4 and β1 integrins and Eu3+-hVCAM-1 D1D7-IgG
# protocol-conditions: in the presence of 3% human serum albumin (HSA final concentration 3%)
readout-label: IC50
Just so you know, I need the unit written after the number.

Sample answers from the record:
CN(C)C(=O)[C@@H]1CCCN1[C@H]1C[C@@H](CO[C@H]2CC[C@H](C(=O)O)CC2)N(C(=O)Cc2cc(Cl)c(NC(=O)c3csc4ccccc34)cc2F)C1 :: 1.1 nM
CN(C)C(=O)C1CCN([C@H]2C[C@@H](CO[C@H]3CC[C@H](C(=O)O)CC3)N(C(=O)Cc3cc(Cl)c(NC(=O)c4coc5ccccc45)cc3Cl)C2)CC1 :: 7.6 nM
CO[C@H]1CN([C@H]2C[C@@H](CO[C@H]3CC[C@H](C(=O)O)CC3)N(C(=O)Cc3cc(Cl)c(NC(=O)c4csc5ccccc45)cc3F)C2)C[C@H]1OC :: 6.2 nM

IN: // IC50 lookup, key: `O=C(Nc1cc(F)c(CC(=O)N2C[C@@H](N3CCS(=O)(=O)CC3)C[C@H]2CO[C@H]2CC[C@H](C(=O)O)CC2)cc1Cl)c1coc2ccccc12`
OUT: 8.3 nM

IN: If you can, please state the reported IC50 value of `Cn1cc(C(=O)Nc2cc(F)c(CC(=O)N3C[C@@H](N4CCOCC4)C[C@H]3CO[C@H]3CC[C@H](C(=O)O)CC3)cc2Cl)c2ccccc21` .
OUT: 5.2 nM

====

Readings of IC50 for the listed molecules
# tested-target: hα4 and β1 integrins (Homo sapiens, UniProt P05556+P13612)
# procedure-details: In vitro inhibition of binding between CHO cells expressing hα4 and β1 integrins and Eu3+-hVCAM-1 D1D7-IgG
# protocol-conditions: in the presence of 3% human serum albumin (HSA final concentration 3%)
Respond with the bare value in µM.

C[C@@H]1CN([C@H]2C[C@@H](CO[C@H]3CC[C@H](C(=O)O)CC3)N(C(=O)Cc3cc(Cl)c(NC(=O)c4coc5ccccc45)cc3F)C2)C[C@H](C)O1 :: 0.023
CO[C@H]1CN([C@H]2C[C@@H](CO[C@H]3CC[C@H](C(=O)O)CC3)N(C(=O)Cc3cc(Cl)c(NC(=O)c4coc5ccccc45)cc3F)C2)C[C@@H]1OC :: 0.011

Okay, now this molecule:
IN: I am curious: what IC50 value has been reported for `CO[C@H]1CN([C@H]2C[C@@H](CO[C@H]3CC[C@H](C(=O)O)CC3)N(C(=O)Cc3cc(Cl)c(NC(=O)c4cn(C)c5ccccc45)cc3Cl)C2)C[C@@H]1OC` ?
OUT: 0.018

====

Reported IC50 is given for each of the following compounds.
# tested-target: hα4 and β1 integrins (Homo sapiens, UniProt P05556+P13612)
# procedure-details: In vitro inhibition of binding between CHO cells expressing hα4 and β1 integrins and Eu3+-hVCAM-1 D1D7-IgG
# protocol-conditions: in the presence of 3% human serum albumin (HSA final concentration 3%)
Give the value in nM but do not write nM after it.

Use these answered entries as a reference point.
Cn1cc(C(=O)Nc2cc(F)c(CC(=O)N3C[C@@H](N4CCC(F)(F)CC4)C[C@H]3CO[C@H]3CC[C@H](C(=O)O)CC3)cc2Cl)c2ccccc21 [Example 101] :: 17
CCO[C@H]1CCN([C@H]2C[C@@H](CO[C@H]3CC[C@H](C(=O)O)CC3)N(C(=O)Cc3cc(Cl)c(NC(=O)c4cn(C)c5ccccc45)cc3Cl)C2)C1 [Example 36] :: 24
C[C@@H]1CN([C@H]2C[C@@H](CO[C@H]3CC[C@H](C(=O)O)CC3)N(C(=O)Cc3ccc(NC(=O)c4csc5ccccc45)c(Cl)c3)C2)C[C@H](C)O1 [Example 92] :: 10
CO[C@H]1CCN([C@H]2C[C@@H](CO[C@H]3CC[C@H](C(=O)O)CC3)N(C(=O)Cc3cc(Cl)c(NC(=O)c4cn(C)c5ccccc45)cc3Cl)C2)C1 [Example 35] :: 20

Now examine the next entry.
IN: What does the record list as IC50 for C[C@@H]1CN([C@H]2C[C@@H](CO[C@H]3CC[C@H](C(=O)O)CC3)N(C(=O)Cc3cc(Cl)c(NC(=O)c4coc5ccccc45)cc3Cl)C2)C[C@H](C)O1 [Example 83] ?
OUT: 42

====

# procedure-details: Solubility test in first and second liquid of the Japanese Pharmacopoeia
# protocol-conditions: second liquid of the Japanese Pharmacopoeia (JP2), pH 6.8, aqueous buffer, Solubility, Second liquid of Japanese Pharmacopoeia (μg/mL), JP2, pH=6.8
Reported solubility values are given for each entry in this list.
Record the value in µg/mL, omitting the unit from your answer.

Examples with answers:
CO[C@@H]1CCCN([C@H]2C[C@@H](CO[C@H]3CC[C@H](C(=O)O)CC3)N(C(=O)Cc3cc(Cl)c(NC(=O)c4csc5ccccc45)cc3F)C2)C1 [Example 106] :: 1580
C[C@@H]1CN([C@H]2C[C@@H](CO[C@H]3CC[C@H](C(=O)O)CC3)N(C(=O)Cc3ccc(NC(=O)c4nn(C)c5ccccc45)c(Cl)c3)C2)C[C@H](C)O1 [Example 88] :: 1300

IN: For CCO[C@H]1CN([C@H]2C[C@@H](CO[C@H]3CC[C@H](C(=O)O)CC3)N(C(=O)Cc3cc(Cl)c(NC(=O)c4cn(C)c5ccccc45)cc3Cl)C2)C[C@H]1OCC [Example 63] , what is its reported solubility?
OUT: 1000

IN: What value of measured solubility is listed for CO[C@H]1CN([C@H]2C[C@@H](CO[C@H]3CC[C@H](C(=O)O)CC3)N(C(=O)Cc3cc(Cl)c(NC(=O)c4coc5ccccc45)cc3Cl)C2)C[C@@H]1OC [Example 54] ?
OUT: 1000

====

# tested-target: hα4 and β1 integrins (Homo sapiens, UniProt P05556+P13612)
# procedure-details: In vitro inhibition of binding between CHO cells expressing hα4 and β1 integrins and Eu3+-hVCAM-1 D1D7-IgG
# protocol-conditions: CHO cells expressing hα4 and β1 integrins; Eu3+-hVCAM-1 D1D7-IgG ligand; without HSA
Mark each entry 1 if its Ki sits below 3 nM, and 0 for all others.

Solved cases (3 shown):
COC1CCN([C@H]2C[C@@H](CO[C@H]3CC[C@H](C(=O)O)CC3)N(C(=O)Cc3cc(Cl)c(NC(=O)c4csc5ccccc45)cc3F)C2)CC1 :: 1
O=C(Nc1cc(F)c(CC(=O)N2C[C@@H](N3CCC4(CC4)C3)C[C@H]2CO[C@H]2CC[C@H](C(=O)O)CC2)cc1Cl)c1csc2ccccc12 :: 1
O=C(Nc1cc(F)c(CC(=O)N2C[C@@H](N3C[C@@H]4CS(=O)(=O)C[C@@H]4C3)C[C@H]2CO[C@H]2CC[C@H](C(=O)O)CC2)cc1Cl)c1coc2ccccc12 :: 1

IN: Strictly below 3 nM: is that where Ki of `O=C(Nc1cc(F)c(CC(=O)N2C[C@@H](N3C[C@H]4C[C@H]4C3)C[C@H]2CO[C@H]2CC[C@H](C(=O)O)CC2)cc1Cl)c1csc2ccccc12` sits?
OUT: 0

IN: For `CO[C@H]1CN([C@H]2C[C@@H](CO[C@H]3CC[C@H](C(=O)O)CC3)N(C(=O)Cc3ccc(NC(=O)c4nn(C)c5ccccc45)c(Cl)c3)C2)C[C@H]1OC` , is the recorded Ki below the cut-off of 3 nM?
OUT: 0

====

# tested-target: hα4 and β1 integrins (Homo sapiens, UniProt P05556+P13612)
# procedure-details: In vitro inhibition of binding between CHO cells expressing hα4 and β1 integrins and Eu3+-hVCAM-1 D1D7-IgG
# protocol-conditions: CHO cells expressing hα4 and β1 integrins; Eu3+-hVCAM-1 D1D7-IgG ligand; without HSA
readout-label: Ki (nM)
Use nM as the unit, but write only the number.

O=C(Nc1cc(F)c(CC(=O)N2C[C@@H](N3CC(N4CCOCC4)C3)C[C@H]2CO[C@H]2CC[C@H](C(=O)O)CC2)cc1Cl)c1csc2ccccc12 :: 3.8
COC1CN([C@H]2C[C@@H](CO[C@H]3CC[C@H](C(=O)O)CC3)N(C(=O)Cc3cc(Cl)c(NC(=O)c4csc5ccccc45)cc3Cl)C2)C1 (relative stereo) :: 0.8

Next up:
IN: Enter reported Ki observed with hα4 and β1 integrins (Homo sapiens, UniProt P05556+P13612) for `CN(C)C(=O)[C@@H]1CCCN1[C@H]1C[C@@H](CO[C@H]2CC[C@H](C(=O)O)CC2)N(C(=O)Cc2cc(Cl)c(NC(=O)c3csc4ccccc34)cc2F)C1`
OUT: 0.32

====

# tested-target: hα4 and β1 integrins (Homo sapiens, UniProt P05556+P13612)
# procedure-details: In vitro inhibition of binding between CHO cells expressing hα4 and β1 integrins and Eu3+-hVCAM-1 D1D7-IgG
# protocol-conditions: CHO cells expressing hα4 and β1 integrins; Eu3+-hVCAM-1 D1D7-IgG ligand; without HSA
The molecules listed here are annotated with their pKi.
To interpret pKi, take it as minus log10 of a concentration measured in moles per litre.

CN1CCN([C@H]2C[C@@H](CO[C@H]3CC[C@H](C(=O)O)CC3)N(C(=O)Cc3cc(Cl)c(NC(=O)c4cn(C)c5ccccc45)cc3Cl)C2)CC1=O :: 8.41
CCOC[C@@H]1CCCN1[C@H]1C[C@@H](CO[C@H]2CC[C@H](C(=O)O)CC2)N(C(=O)Cc2cc(Cl)c(NC(=O)c3csc4ccccc34)cc2Cl)C1 :: 8.70
O=C(Nc1ccc(CC(=O)N2C[C@@H](N3CCN(CC(F)(F)F)CC3)C[C@H]2CO[C@H]2CC[C@H](C(=O)O)CC2)cc1Cl)c1coc2ccccc12 :: 8.77
Cn1cc(C(=O)Nc2cc(Cl)c(CC(=O)N3C[C@@H](N4CCN(C5CC5)CC4)C[C@H]3CO[C@H]3CC[C@H](C(=O)O)CC3)cc2Cl)c2ccccc21 :: 8.60
CC(=O)N1CCN([C@H]2C[C@@H](CO[C@H]3CC[C@H](C(=O)O)CC3)N(C(=O)Cc3cc(Cl)c(NC(=O)c4csc5ccccc45)cc3F)C2)CC1 :: 9.28
C[C@@H]1CN([C@H]2C[C@@H](CO[C@H]3CC[C@H](C(=O)O)CC3)N(C(=O)Cc3cc(Cl)c(NC(=O)c4csc5ccccc45)cc3Cl)C2)C[C@H](C)O1 :: 8.62
Cn1cc(C(=O)Nc2cc(Cl)c(CC(=O)N3C[C@@H](N4CCN(C(C)(C)CF)CC4)C[C@H]3CO[C@H]3CC[C@H](C(=O)O)CC3)cc2Cl)c2ccccc21 :: 8.35
COC[C@H]1CCCN1[C@H]1C[C@@H](CO[C@H]2CC[C@H](C(=O)O)CC2)N(C(=O)Cc2cc(Cl)c(NC(=O)c3csc4ccccc34)cc2F)C1 :: 8.17

IN: Which pKi is reported with hα4 and β1 integrins (Homo sapiens, UniProt P05556+P13612) for this entry: `Cn1cc(C(=O)Nc2cc(Cl)c(CC(=O)N3C[C@@H](N4CCN(CC(F)(F)F)CC4)C[C@H]3CO[C@H]3CC[C@H](C(=O)O)CC3)cc2Cl)c2ccccc21` ?
OUT: 8.06

IN: pKi of `COc1cc(CC(=O)N2C[C@@H](N3CCN(CC(F)(F)F)CC3)C[C@H]2CO[C@H]2CC[C@H](C(=O)O)CC2)ccc1NC(=O)c1cn(C)c2ccccc12` on hα4 and β1 integrins (Homo sapiens, UniProt P05556+P13612)?
OUT: 8.77

IN: Which measured pKi belongs to `CO[C@H]1CN([C@H]2C[C@@H](CO[C@H]3CC[C@H](C(=O)O)CC3)N(C(=O)Cc3cc(Cl)c(NC(=O)c4coc5ccccc45)cc3Cl)C2)C[C@@H]1OC` , tested on hα4 and β1 integrins (Homo sapiens, UniProt P05556+P13612)?
OUT: 8.47
